B1: Osa-1-4 twister ribozyme (parent)
chain: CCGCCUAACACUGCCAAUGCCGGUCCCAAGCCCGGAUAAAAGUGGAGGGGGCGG

Variants of: B1
Experiment: self-cleavage, relative activity (ratio to wild type); higher = more cleavage; co-transcriptional
Below, each of the variants is paired with its reported self-cleavage value.
result_type: self-cleavage

- variant_notation: "C26U C52G"
  result_value: 0.84
- variant_notation: "A39U A41U"
  result_value: 1.03
- variant_notation: "A7U C27U"
  result_value: 0.06
- variant_notation: "G42U U37C"
  result_value: 0.11
- variant_notation: "A36C C11U"
  result_value: 0.26
- variant_notation: "C14U G44U"
  result_value: 0.14
- variant_notation: "A16C U37C"
  result_value: 1.02
- variant_notation: "A46U C31U"
  result_value: 0.04
- variant_notation: "C20U C52U"
  result_value: 0.96
- variant_notation: "C20G C27U"
  result_value: 0.05
- variant_notation: "A38U G45C"
  result_value: 0.06
- variant_notation: "G48C G54U"
  result_value: 0.2
- variant_notation: "G22C G48C"
  result_value: 0.02
- variant_notation: "G23A G35C"
  result_value: 0.08
- variant_notation: "C11U U43G"
  result_value: 0.2
- variant_notation: "C11U G30A"
  result_value: 0.04
- variant_notation: "C20G U18G"
  result_value: 0.09
- variant_notation: "C11A C21G"
  result_value: 0.07
- variant_notation: "A38C U18A"
  result_value: 0.98
- variant_notation: "C31U G42C"
  result_value: 0.07
- variant_notation: "C31A G19U"
  result_value: 0.02
- variant_notation: "C21A C52G"
  result_value: 0.54
- variant_notation: "C20U U24C"
  result_value: 0.38
- variant_notation: "G13A G45C"
  result_value: 0.02
- variant_notation: "C26U G48U"
  result_value: 0.08
- variant_notation: "C52U U24G"
  result_value: 0.03
- variant_notation: "G22U G30C"
  result_value: 0.04
- variant_notation: "A46G C52G"
  result_value: 0.24
- variant_notation: "C25A G51U"
  result_value: 0.06
- variant_notation: "C25G G50U"
  result_value: 0.11
- variant_notation: "A40U G54C"
  result_value: 0.19
- variant_notation: "A8C G35U"
  result_value: 0.09
- variant_notation: "A41U A8C"
  result_value: 0.07
- variant_notation: "A16C A39U"
  result_value: 0.95
- variant_notation: "G19U G53A"
  result_value: 0.1
- variant_notation: "A40G G50U"
  result_value: 0.54
- variant_notation: "G19U G54C"
  result_value: 0.1
- variant_notation: "C32U G19C"
  result_value: 0.03
- variant_notation: "A28G G48A"
  result_value: 0.04
- variant_notation: "G22U G50C"
  result_value: 0.3
- variant_notation: "G23A G49U"
  result_value: 0.06
- variant_notation: "A46C G44U"
  result_value: 0.06
- variant_notation: "A46U G45U"
  result_value: 0.03
- variant_notation: "A46U G42C"
  result_value: 0.06
- variant_notation: "A38G G54C"
  result_value: 0.94
- variant_notation: "A39G G34U"
  result_value: 0.68

All figures here come from the RNAGym collection of RNA variant scans (doi:10.1002/anie.201605470).
